Here the recorded pIC50 is given for each entry.
Target: non-purified HeLa MGL (wild-type) (Rattus norvegicus)
Sequence (Q8R431 whole entry): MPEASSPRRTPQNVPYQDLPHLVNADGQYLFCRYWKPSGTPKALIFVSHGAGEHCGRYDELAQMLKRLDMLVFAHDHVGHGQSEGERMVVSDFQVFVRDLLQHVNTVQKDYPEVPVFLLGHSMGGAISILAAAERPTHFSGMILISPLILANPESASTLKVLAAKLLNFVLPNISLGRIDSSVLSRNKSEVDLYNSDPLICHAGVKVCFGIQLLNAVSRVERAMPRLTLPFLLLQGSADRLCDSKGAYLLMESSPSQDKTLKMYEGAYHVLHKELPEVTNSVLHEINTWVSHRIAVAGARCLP
Experiment: Inhibition of non-purified MGL
Assay type: biochemical
Conditions: IC50, wild-type MGL in HeLa cell extracts, wt control of the mutational analysis
In plain terms, pIC50 is the concentration in mol/L turned into minus its base-10 logarithm.

* CC(C)=CCC[C@@H](C)[C@@H]1CC[C@]2(C)C3=C(CC[C@@]12C)[C@@]1(C)CC[C@H](O)C(C)(C)[C@@H]1CC3 [euphol] | 6.29

The record that follows has no pIC50 shown yet.
Incoming: Look up pIC50 for this molecule: COC(=O)[C@]1(C)CC[C@]2(C)CC[C@]3(C)C4=CC=C5C(=CC(=O)C(O)=C5C)[C@]4(C)CC[C@@]3(C)[C@@H]2C1 [Pristimerin]
Outgoing: 6.46
